tested on: MS2 coat protein; experiment: apparent KD of MS2 coat protein; designed switch direction (-1 OFF switch, 1 ON switch): -1; higher = weaker reporter binding; settings: Eterna round: R95; input ligand: none
Listed next: entries and their corresponding apparent KD of MS2 coat protein.
Use nM as the unit, but write only the number.

AUAAUAAAGGAGGAUAUCGUAUCGGAAACGAUACGAGAAGGUCUAACAUGAGGAUCACCCAUGUUCCUCAAUAA [Mat - Exclusion 6 - Eli Mod - D48] (puzzle: Exclusion 6)	36.1
AAGUACCGUCACGAUAGUGAUGGUACAACAAGUAGUGAAACAUGAGGAUCACCCAUGUCCUCUUUUGCUCGUCUUAU [Sensor 3 - 88] (puzzle: Sensor v3, turn-off variant 2)	969
UUUAAUUUUUUUUUUUUACAAGCUUUUUGCUCGUCUUAUACAUGAGGAUCACCCAUGUGGGUGGAAAGUAAAUUAUC [JMF 47] (puzzle: Sensor v3, turn-off variant 2)	56.2
UAGAAUCGAGGAUAUACAUGAGGAUCACCCAUGUGUGGCCACACGGUGUGGUCGUCAGGUAGAAGGCGAUUACA [Exclusion 3 - Mod of Jieux's Gilly Gone Silly 23 v.3] (puzzle: Exclusion 3)	53.2

The sequence listed as AGAGAUGCCCAUGGCCGCAAGCUUUUUGCUUGUCUUACCACAUGAGGAUCACCCAUGUGACAUGGGCUCCUUAUAAU [Essoator] (puzzle: Sensor v3, turn-off variant 2) shows apparent KD of MS2 coat protein equal to 12.1
